Target: T1, soluble Homo sapiens CD131 comprising a C-terminal 6xHis tag (human, UniProt P32927 17-438)
T1 construct: truncated after Ser438, C-terminal 6xHis; also called shCD131; shβc
T1 sequence: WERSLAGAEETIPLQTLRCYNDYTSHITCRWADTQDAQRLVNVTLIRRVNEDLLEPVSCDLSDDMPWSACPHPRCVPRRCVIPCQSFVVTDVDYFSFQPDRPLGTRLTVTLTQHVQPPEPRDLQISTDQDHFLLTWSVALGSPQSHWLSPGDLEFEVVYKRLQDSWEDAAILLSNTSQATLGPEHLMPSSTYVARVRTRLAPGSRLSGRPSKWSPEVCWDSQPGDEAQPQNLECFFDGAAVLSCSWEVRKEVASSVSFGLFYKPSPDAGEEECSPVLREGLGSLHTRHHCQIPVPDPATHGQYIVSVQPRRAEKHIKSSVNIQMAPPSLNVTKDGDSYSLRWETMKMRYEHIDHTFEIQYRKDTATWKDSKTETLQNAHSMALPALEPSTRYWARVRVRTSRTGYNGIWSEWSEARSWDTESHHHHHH
Assay: SPR, Fab over captured shCD131
Reported Kd values follow for various binders
Supply the numeric figure in nM, leaving out any unit text.

These recorded examples may help you get a feel for the data.
9A2-VR40 Fab (Fab, V domains shown, recombinant Fab) VH: EVQLLESGGGLVQPGGSLRLSCAASGFTFSHYHMLWVRQAPGKGLEWVSSINGYGIQTYYADSVKGRFTISRDNSKNTLYLQMNSLRAEDTAVYYCARFYDSFFDIWGQGTMVTVSS VL: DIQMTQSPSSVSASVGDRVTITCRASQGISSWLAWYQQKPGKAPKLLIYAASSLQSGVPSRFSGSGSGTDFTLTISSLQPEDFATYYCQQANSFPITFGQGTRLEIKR    0.52
9A2 Fab (Fab, V domains shown, also called recombinant Fab of 9A2) VH: EVQLLESGGGLVQPGGSLRLSCAASGFTFSHYHMLWVRQAPGKGLEWVSSIRSSGGFTYYADSVKGRFTISRDNSKNTLYLQMNSLRAEDTAVYYCARFYDSFFDIWGQGTMVTVSS VL: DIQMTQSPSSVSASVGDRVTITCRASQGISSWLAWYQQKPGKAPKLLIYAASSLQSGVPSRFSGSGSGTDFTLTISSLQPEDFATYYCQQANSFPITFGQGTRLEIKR    49
9A2-VR19 Fab (Fab, V domains shown, recombinant Fab) VH: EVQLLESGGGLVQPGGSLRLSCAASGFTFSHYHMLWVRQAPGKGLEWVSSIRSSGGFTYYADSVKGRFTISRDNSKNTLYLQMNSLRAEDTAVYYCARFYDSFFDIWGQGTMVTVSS VL: DIQMTQSPSSVSASVGDRVTITCRASQGISSWLAWYQQKPGKAPKLLIYAASSLQSGVPSRFSGSGSGTDFTLTISSLQPEDFATYYCGIPILGPITFGQGTRLEIKR    30
9A2-VR35 Fab (Fab, V domains shown, recombinant Fab) VH: EVQLLESGGGLVQPGGSLRLSCAASGFTFSHYHMLWVRQAPGKGLEWVSSINGFGRNTYYADSVKGRFTISRDNSKNTLYLQMNSLRAEDTAVYYCARFYDSFFDIWGQGTMVTVSS VL: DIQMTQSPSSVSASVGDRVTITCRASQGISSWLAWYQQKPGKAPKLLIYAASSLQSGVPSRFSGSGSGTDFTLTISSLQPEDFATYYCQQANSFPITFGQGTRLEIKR    0.34

Ask: Kd lookup needed for 9A2-VR42 Fab (Fab, V domains shown, recombinant Fab) VH: EVQLLESGGGLVQPGGSLRLSCAASGFTFSHYHMLWVRQAPGKGLEWVSSIGGDIRQTYYADSVKGRFTISRDNSKNTLYLQMNSLRAEDTAVYYCARFYDSFFDIWGQGTMVTVSS VL: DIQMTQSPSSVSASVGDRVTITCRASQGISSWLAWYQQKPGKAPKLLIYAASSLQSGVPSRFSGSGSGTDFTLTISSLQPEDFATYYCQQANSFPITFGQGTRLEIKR , thanks.
Reply: 0.38
